# Target Desc: complement component C3b (obtained after hydrolysis of C3) (UniProt P01024 23-667; P01024 749-1663)
# Sequence (P01024 23-667 limits assumed, chain 1 of 2): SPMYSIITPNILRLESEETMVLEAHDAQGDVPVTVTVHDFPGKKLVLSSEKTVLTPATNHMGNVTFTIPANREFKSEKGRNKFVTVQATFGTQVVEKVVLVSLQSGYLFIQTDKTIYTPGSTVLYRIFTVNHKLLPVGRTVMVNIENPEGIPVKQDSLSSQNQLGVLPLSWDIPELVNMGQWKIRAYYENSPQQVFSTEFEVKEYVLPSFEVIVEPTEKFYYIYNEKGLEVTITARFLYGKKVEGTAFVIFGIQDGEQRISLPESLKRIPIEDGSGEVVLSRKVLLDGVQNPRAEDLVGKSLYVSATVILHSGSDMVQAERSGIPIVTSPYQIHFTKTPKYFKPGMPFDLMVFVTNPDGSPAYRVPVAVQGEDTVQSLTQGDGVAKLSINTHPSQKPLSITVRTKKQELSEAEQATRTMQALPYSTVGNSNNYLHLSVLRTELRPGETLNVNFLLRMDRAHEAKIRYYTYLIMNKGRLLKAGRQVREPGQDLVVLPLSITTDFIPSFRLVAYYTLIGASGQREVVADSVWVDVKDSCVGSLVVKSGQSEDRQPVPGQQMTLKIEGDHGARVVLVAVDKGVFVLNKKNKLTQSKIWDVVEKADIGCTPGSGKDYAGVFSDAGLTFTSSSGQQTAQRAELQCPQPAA
# Sequence (P01024 749-1663 limits assumed, chain 2 of 2): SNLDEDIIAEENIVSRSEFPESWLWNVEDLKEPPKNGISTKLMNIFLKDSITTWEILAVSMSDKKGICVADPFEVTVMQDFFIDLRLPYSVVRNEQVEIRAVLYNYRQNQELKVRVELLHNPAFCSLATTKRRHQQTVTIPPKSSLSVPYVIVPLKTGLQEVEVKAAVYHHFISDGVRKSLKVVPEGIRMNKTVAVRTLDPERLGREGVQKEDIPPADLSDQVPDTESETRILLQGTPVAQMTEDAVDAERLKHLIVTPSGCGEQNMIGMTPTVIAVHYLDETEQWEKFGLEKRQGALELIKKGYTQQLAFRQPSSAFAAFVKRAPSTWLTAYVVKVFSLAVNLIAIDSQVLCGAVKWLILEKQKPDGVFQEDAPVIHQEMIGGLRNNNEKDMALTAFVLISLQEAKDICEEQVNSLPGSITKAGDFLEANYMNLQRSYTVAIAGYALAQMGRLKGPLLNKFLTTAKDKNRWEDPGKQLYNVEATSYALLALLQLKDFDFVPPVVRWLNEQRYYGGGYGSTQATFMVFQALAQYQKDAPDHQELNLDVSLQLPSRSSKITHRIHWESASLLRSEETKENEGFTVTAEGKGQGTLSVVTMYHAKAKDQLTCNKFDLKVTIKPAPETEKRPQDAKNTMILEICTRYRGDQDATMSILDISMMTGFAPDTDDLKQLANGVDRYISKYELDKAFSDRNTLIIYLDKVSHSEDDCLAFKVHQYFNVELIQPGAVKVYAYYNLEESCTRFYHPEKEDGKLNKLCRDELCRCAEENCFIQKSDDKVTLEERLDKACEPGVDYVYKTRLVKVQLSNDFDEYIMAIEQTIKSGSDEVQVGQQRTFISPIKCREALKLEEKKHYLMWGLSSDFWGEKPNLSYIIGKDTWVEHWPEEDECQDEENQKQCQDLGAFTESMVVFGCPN
# Assay Overview: biolayer interferometry (Octet RED96), GFP tagged Nanofitin captured by anti-GFP Nanofitin, C3b in solution, 1:1 fit
pKd: −log10 of the molar value.
Measurement Label: pKd

INSERT INTO measurements (binder, numeric_value) VALUES
  ('B10 (SEQ ID NO: 25), GFP tagged Nanofitin (designed binder, Variant of Nf1 from off-rate selection; not shown: GFP tag) MVKVKFDATGEEKEVDTSKISAVYRTGKDVLFSYDDNGKIGWGYVSEKDAPKELLDLLARAERE', 8.14),
  ('H03 (SEQ ID NO: 26), GFP tagged Nanofitin (designed binder, Variant of Nf1 from off-rate selection; not shown: GFP tag) MVKVKFAATGEEKEVDTSKIANVYRVGKDVLFSYDDNGKIGWGYVSEKDAPKELLDLLARAERE', 8.54);
